experiment: Plasma pharmacokinetics of BAY1436032 (LC-MS/MS); type: in vivo, human; settings: human, plasma, oral, 1500 mg, C1-D1 single-dose, 1500 mg, n=9; geometric mean (CV); read-out: Cmax
Endpoint label: Cmax (ng/mL)
Record the value in ng/mL, omitting the unit from your answer.

Challenge: What value of measured Cmax is listed for C[C@H]1C[C@@H](n2c(Nc3ccc(OC(F)(F)F)cc3)nc3cc(CCC(=O)O)ccc32)CC(C)(C)C1 [BAY1436032] ?
Response given: 9820

* * *

experiment: Plasma pharmacokinetics of BAY1436032 (LC-MS/MS); assay type: in vivo, human; conditions: human, plasma, oral, 1500 mg, C1-D1 single-dose, 1500 mg, n=9; geometric mean (CV); read-out: AUC(0-12)
Endpoint label: AUC(0-t) (ng·h/mL)
Reply numerically in ng·h/mL, unit not repeated.

Challenge: // returns reported AUC(0-t) for input C[C@H]1C[C@@H](n2c(Nc3ccc(OC(F)(F)F)cc3)nc3cc(CCC(=O)O)ccc32)CC(C)(C)C1
Response given: 50300

* * *

experiment: Plasma pharmacokinetics of BAY1436032 (LC-MS/MS); type: in vivo, human; conditions: human, plasma, oral, 300 mg, C1-D1 single-dose, 300 mg, n=7; geometric mean (CV); read-out: AUC(0-12)
Endpoint label: AUC(0-t) (ng·h/mL)
The figure you give is taken to be in ng·h/mL; do not add the unit.

Challenge: Could you tell me which AUC(0-t) is on file for C[C@H]1C[C@@H](n2c(Nc3ccc(OC(F)(F)F)cc3)nc3cc(CCC(=O)O)ccc32)CC(C)(C)C1 ?
Response given: 7440

* * *

assay: Plasma pharmacokinetics of BAY1436032 (LC-MS/MS); type: in vivo, human; conditions: human, plasma, oral, 1500 mg, C1-D15 continuous BID, 1500 mg BID, n=3; geometric mean (CV); read-out: AUC(0-12)md
Endpoint label: AUC(0-t)
Please append the unit to your numeric answer.

Challenge: Fill blank: measured AUC(0-t) of the compound C[C@H]1C[C@@H](n2c(Nc3ccc(OC(F)(F)F)cc3)nc3cc(CCC(=O)O)ccc32)CC(C)(C)C1 [BAY1436032] is ____.
Response given: 44500 ng·h/mL

* * *

assay: Plasma pharmacokinetics of BAY1436032 (LC-MS/MS); format: in vivo, human; conditions: human, plasma, oral, 1200 mg, C1-D15 continuous BID, 1200 mg BID, n=7; geometric mean (CV); read-out: Cmax,md
Endpoint label: Cmax (ng/mL)
Write down the numeric answer in ng/mL and omit the unit.

Challenge: Bench note: what Cmax did C[C@H]1C[C@@H](n2c(Nc3ccc(OC(F)(F)F)cc3)nc3cc(CCC(=O)O)ccc32)CC(C)(C)C1 [BAY1436032] show?
Response given: 6050

* * *

experiment: Plasma pharmacokinetics of BAY1436032 (LC-MS/MS); format: in vivo, human; details: human, plasma, oral, 1200 mg, C1-D1 single-dose, 1200 mg, n=7; geometric mean (CV); read-out: AUC(0-12)
Endpoint label: AUC(0-t)

Challenge: What measured AUC(0-t) goes with C[C@H]1C[C@@H](n2c(Nc3ccc(OC(F)(F)F)cc3)nc3cc(CCC(=O)O)ccc32)CC(C)(C)C1 ?
Response given: 24800 ng·h/mL
